# assay-protocol: Pharmacokinetics in mice after IV and PO administrations
# Type: in vivo, male BALB-c mice
# run-parameters: male, BALB-c, mouse, plasma, 10 mg/kg PO
value-type: half-life (h)

>  <molecule>
O=C1NCC=CCN1[C@@H]1O[C@H](CO)[C@@H](O)C1(F)F [ER-876437]

>  <value-type>
half-life

>  <units-symbol>
h

>  <observed>
16.3

$$$$

---

Measured concentration at 24 hr, listed per entry for reference.
# assay-protocol: Pharmacokinetics in mice after IV and PO administrations
# Assay type: in vivo, male BALB-c mice
# run-parameters: male, BALB-c, mouse, plasma, 10 mg/kg IV, 24 hr, read-out: Plasma concentrations

>  <compound>
O=C1NCC=CCN1[C@@H]1O[C@H](CO)[C@@H](O)C1(F)F

>  <concentration at 24 hr [ng/mL]>
20

$$$$
>  <compound>
O=C1NCC=CCN1[C@@H]1O[C@H](CO)[C@@H](O)[C@H]1O [ER-876400, reference compound]

>  <concentration at 24 hr [ng/mL]>
93

$$$$

---

# study-target: cytidine deaminase (CDA) (Homo sapiens (Human))
# assay-protocol: Effect of ER-876437 on the half-life of gemcitabine in the presence of CDA in Tris-HCl buffer at 37° C.
# Type: biochemical
# Set-up: dose or concentration left out as unconfirmed
# run-parameters: cytidine deaminase (CDA) in Tris-HCl buffer, pH 7.4, Gemcitabine with CDA in Tris-HCl buffer at 37° C.; read-out: Estimated T1/2 of gemcitabine

>  <mol>
Nc1ccn([C@@H]2O[C@H](CO)[C@@H](O)C2(F)F)c(=O)n1

>  <study-target>
cytidine deaminase (CDA) (Homo sapiens (Human))

>  <half-life>
< 35 min

$$$$

---

# assay-protocol: Pharmacokinetics in mice after IV and PO administrations
# Format: in vivo, male BALB-c mice
# run-parameters: male, BALB-c, mouse, plasma, 10 mg/kg IV, read-out: AUC0-t
# Description: […]. All doses were prepared in phosphate buffered saline (PBS) and were administered at a volume of 5 mL/kg. Five mice per group were used in these studies. Blood samples were taken serially from the tail vein of each mouse at predetermined timepoints. Blood samples from all mice in each group were pooled together prior to processing for plasma. The pooled blood samples were spun down within 30-60 minutes after withdrawal and the plasma was harvested and frozen for assay. […]
value-type: AUC(0-t)

>  <compound>
O=C1NCC=CCN1[C@@H]1O[C@H](CO)[C@@H](O)C1(F)F [ER-876437]

>  <observed>
12900 ng·h/mL

$$$$
>  <compound>
O=C1NCC=CCN1[C@@H]1O[C@H](CO)[C@@H](O)[C@H]1O [ER-876400, reference compound]

>  <observed>
18800 ng·h/mL

$$$$

---

# assay-protocol: Pharmacokinetics in mice after IV and PO administrations
# Format: in vivo, male BALB-c mice
# run-parameters: male, BALB-c, mouse, plasma, 10 mg/kg PO

>  <mol>
O=C1NCC=CCN1[C@@H]1O[C@H](CO)[C@@H](O)C1(F)F

>  <AUC(0-inf)>
9500 ng·h/mL

$$$$

---

# assay-protocol: Pharmacokinetics in mice after IV and PO administrations
# Type: in vivo, male BALB-c mice
# run-parameters: male, BALB-c, mouse, plasma, 10 mg/kg IV, 0.5 hr, read-out: Plasma concentrations
Measured concentration at 0.5 hr, listed per entry for reference.

>  <molecule>
O=C1NCC=CCN1[C@@H]1O[C@H](CO)[C@@H](O)[C@H]1O [ER-876400, reference compound]

>  <units-symbol>
ng/mL

>  <concentration at 0.5 hr>
10200

$$$$
>  <molecule>
O=C1NCC=CCN1[C@@H]1O[C@H](CO)[C@@H](O)C1(F)F [ER-876437]

>  <units-symbol>
ng/mL

>  <concentration at 0.5 hr>
7690

$$$$

---

# study-target: cytidine deaminase (CDA) (Homo sapiens (Human), UniProt P32320)
# Sequence (P32320 whole entry): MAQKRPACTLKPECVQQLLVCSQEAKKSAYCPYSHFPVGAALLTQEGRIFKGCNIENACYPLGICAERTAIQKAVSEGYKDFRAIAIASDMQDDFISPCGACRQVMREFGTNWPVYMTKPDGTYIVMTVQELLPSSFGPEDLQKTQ
# assay-protocol: Effect of ER-876437 on the half-life of decitabine in the presence of CDA in Tris-HCl buffer at 37° C.
# Assay type: biochemical
# run-parameters: cytidine deaminase (CDA) in Tris-HCl buffer, pH 7.4, Estimated T1/2 of decitabine, Decitabine with CDA and ER-876437 in Tris-HCl buffer at 37° C.
value-type: half-life at 0.2 mM (h)

>  <molecule>
Nc1ncn([C@H]2C[C@H](O)[C@@H](CO)O2)c(=O)n1 [decitabine, 5-aza-2′-deoxycytidine]

>  <observed>
9

$$$$

---

Measured concentration at 24 hr, listed per entry for reference.
# assay-protocol: Pharmacokinetics in mice after IV and PO administrations
# Format: in vivo, male BALB-c mice
# run-parameters: male, BALB-c, mouse, plasma, 10 mg/kg PO, 24 hr, read-out: Plasma concentrations

>  <compound>
O=C1NCC=CCN1[C@@H]1O[C@H](CO)[C@@H](O)C1(F)F

>  <concentration at 24 hr (ng/mL)>
39

$$$$
>  <compound>
O=C1NCC=CCN1[C@@H]1O[C@H](CO)[C@@H](O)[C@H]1O [ER-876400, reference compound]

>  <concentration at 24 hr (ng/mL)>
264

$$$$

---

Measured dose-normalized exposures (AUC0-∞), listed per entry for reference.
# assay-protocol: Pharmacokinetics in mice after IV and PO administrations
# Type: in vivo, male BALB-c mice
# run-parameters: 10 mg/kg IV
value-type: dose-normalized exposures (AUC0-∞) (ng·h/mL per mg/kg)

>  <compound>
O=C1NCC=CCN1[C@@H]1O[C@H](CO)[C@@H](O)C1(F)F

>  <value-type>
dose-normalized exposures (AUC0-∞)

>  <units-symbol>
ng·h/mL per mg/kg

>  <observed>
1310

$$$$
>  <compound>
O=C1NCC=CCN1[C@@H]1O[C@H](CO)[C@@H](O)[C@H]1O [ER-876400, reference compound]

>  <value-type>
dose-normalized exposures (AUC0-∞)

>  <units-symbol>
ng·h/mL per mg/kg

>  <observed>
2100

$$$$

---

# assay-protocol: Pharmacokinetics in mice after IV and PO administrations
# Format: in vivo, male BALB-c mice
# run-parameters: male, BALB-c, mouse, plasma, 10 mg/kg PO, 0.167 hr, read-out: Plasma concentrations
value-type: concentration at 0.167 hr

>  <molecule>
O=C1NCC=CCN1[C@@H]1O[C@H](CO)[C@@H](O)[C@H]1O [ER-876400, reference compound]

>  <observed>
7100 ng/mL

$$$$
>  <molecule>
O=C1NCC=CCN1[C@@H]1O[C@H](CO)[C@@H](O)C1(F)F [ER-876437]

>  <observed>
8600 ng/mL

$$$$

---

Measured concentration at 1 hr, listed per entry for reference.
# assay-protocol: Pharmacokinetics in mice after IV and PO administrations
# Format: in vivo, male BALB-c mice
# run-parameters: male, BALB-c, mouse, plasma, 10 mg/kg IV, 1 hr, read-out: Plasma concentrations

>  <compound>
O=C1NCC=CCN1[C@@H]1O[C@H](CO)[C@@H](O)C1(F)F

>  <concentration at 1 hr>
3470 ng/mL

$$$$
>  <compound>
O=C1NCC=CCN1[C@@H]1O[C@H](CO)[C@@H](O)[C@H]1O [ER-876400, reference compound]

>  <concentration at 1 hr>
4210 ng/mL

$$$$

---

# assay-protocol: Pharmacokinetics in mice after IV and PO administrations
# Type: in vivo, male BALB-c mice
# run-parameters: male, BALB-c, mouse, plasma, 10 mg/kg IV, 2 hr, read-out: Plasma concentrations
value-type: concentration at 2 hr (ng/mL)

>  <mol>
O=C1NCC=CCN1[C@@H]1O[C@H](CO)[C@@H](O)C1(F)F

>  <observed>
1450

$$$$
